Molecular target: P-selectin (Homo sapiens, UniProt P16109)
Construct: from tissue; host or cells: outdated human platelet packs from a blood bank
Sequence (P16109 42-830): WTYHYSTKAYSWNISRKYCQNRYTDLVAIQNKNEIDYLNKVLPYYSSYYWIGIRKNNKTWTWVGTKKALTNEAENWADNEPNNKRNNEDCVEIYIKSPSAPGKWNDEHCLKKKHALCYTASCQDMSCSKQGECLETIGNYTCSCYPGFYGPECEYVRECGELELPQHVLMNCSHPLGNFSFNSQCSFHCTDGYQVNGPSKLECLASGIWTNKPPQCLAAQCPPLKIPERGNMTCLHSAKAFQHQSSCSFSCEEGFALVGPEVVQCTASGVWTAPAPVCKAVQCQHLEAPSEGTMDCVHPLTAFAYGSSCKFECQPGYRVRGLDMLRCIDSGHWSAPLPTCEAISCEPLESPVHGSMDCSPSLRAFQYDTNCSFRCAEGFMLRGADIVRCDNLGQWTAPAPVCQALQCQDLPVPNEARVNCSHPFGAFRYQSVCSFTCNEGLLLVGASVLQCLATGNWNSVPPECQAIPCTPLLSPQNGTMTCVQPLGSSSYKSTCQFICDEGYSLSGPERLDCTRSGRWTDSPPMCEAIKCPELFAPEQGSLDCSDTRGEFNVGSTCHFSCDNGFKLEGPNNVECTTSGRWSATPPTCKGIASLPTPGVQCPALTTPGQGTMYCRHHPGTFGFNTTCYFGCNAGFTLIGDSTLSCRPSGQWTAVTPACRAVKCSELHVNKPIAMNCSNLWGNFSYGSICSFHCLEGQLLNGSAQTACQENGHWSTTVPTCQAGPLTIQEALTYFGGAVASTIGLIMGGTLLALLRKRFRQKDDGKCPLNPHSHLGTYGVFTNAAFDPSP
Test: Inhibition of binding of human neutrophils to P-selectin (neutrophil adhesion to purified immobilized P-selectin, myeloperoxidase readout)
Format: cell-based
Settings: P-selectin purified from human platelets, plated at 5 micrograms/mL, peptides tested 1.0 mM to 0.001 mM
Where no end group is shown, it is not given here.
Output schema: class label derived from IC50. Mapping: bottom range: < 20 µM; center range: ≥ 20 µM and < 100 µM; top range: ≥ 100 µM

substance="SKKKHALCY-NH2 [SEQ ID NO: 25, SKKKHALCY--NH2]" assigned_label="top range"
substance="Ac-SRARLALCY-NH2 [SEQ ID NO: 61, Ac-SRARLALCY--NH2]" assigned_label="center range"
substance="Ac-SRKKLALCY-NH2 [SEQ ID NO: 63, Ac-SRKKLALCY--NH2]" assigned_label="bottom range"

Which class holds SRKRLALSY-NH2 [SEQ ID NO: 67, SRKRLALSY--NH2] ?
top range

Which category does the recorded IC50 put Ac-SKRKRALCY-NH2 [SEQ ID NO: 55, Ac-SKRKRALCY--NH2] in?
center range

Assign a bin to Ac-NKKKLALCY-NH2 [SEQ ID NO: 14, Ac-NKKKLALCY--NH2]
center range

Class (by measured IC50) for NKKKLALCY-NH2 [SEQ ID NO: 15, NKKKLALCY--NH2]
bottom range

Lab note: which band did SKKKLALCY-NH2 [SEQ ID NO: 31, SKKKLALCY--NH2] land in?
bottom range

Entry QKKKLALCY-NH2 [SEQ ID NO: 17, QKKKLALCY--NH2] belongs to which category?
top range

Returns: class label. Input: SKKKLALCF-NH2 [SEQ ID NO: 29, SKKKLALCF--NH2]
center range

// bin(item) where item = Ac-SRKRLALCY-NH2 [SEQ ID NO: 65, Ac-SRKRLALCY--NH2]
bottom range

----------
Target: P-selectin (Homo sapiens)
Experiment: Inhibition of binding of human neutrophils to P-selectin (neutrophil adhesion to purified immobilized P-selectin, myeloperoxidase readout)
Conditions: P-selectin purified from human platelets, plated at 5 micrograms/mL, peptides tested 1.0 mM to 0.001 mM
Where a SMILES comes first, the peptide text is derived from it.
Test Readout: pIC50
Conceptually, pIC50 converts a concentration in mol/L into minus its log10.

// Input: CC(C)C[C@H](NC(=O)[C@H](C)NC(=O)[C@H](CC(C)C)NC(=O)[C@H](CCCCN)NC(=O)[C@H](CCCCN)NC(=O)[C@H](CCCCN)NC(=O)[C@H](CO)NC(=O)[C@@H](N)CS)C(=O)N[C@@H](CS)C(=O)N[C@@H](Cc1ccc(O)cc1)C(N)=O [SEQ ID NO: 2] (H-CSKKKLALCY-NH2) . Output its pIC50 only.
4.32

----------
Target: P-selectin (Homo sapiens)
Construct: from tissue; host or cells: outdated human platelet packs from a blood bank
Test: Inhibition of binding of human neutrophils to P-selectin (neutrophil adhesion to purified immobilized P-selectin, myeloperoxidase readout)
Type: cell-based
Conditions: P-selectin purified from human platelets, plated at 5 micrograms/mL, peptides tested 1.0 mM to 0.001 mM
Where no end group is shown, it is not given here.
Each entry below lists one item and its recorded IC50 value.
Value expressed in µM; do not type the unit.

substance="SKKKLALFY-NH2 [SEQ ID NO: 32, SKKKLALFY--NH2]" unit_text=µM measured_result=15

Tell me its IC50 given FKKKLALCY-NH2 [SEQ ID NO: 8, FKKKLALCY--NH2] as the entry.
20

Name the recorded IC50 of the item Ac-SKKKLALLY-NH2 [SEQ ID NO: 37, Ac-SKKKLALLY--NH2] in your answer.
88

Return IC50 for the following substance: SKKKLALVY-NH2 [SEQ ID NO: 40, SKKKLALVY--NH2]
233
